System Name: BRM (Homo sapiens)
Sequence (P51531 whole entry): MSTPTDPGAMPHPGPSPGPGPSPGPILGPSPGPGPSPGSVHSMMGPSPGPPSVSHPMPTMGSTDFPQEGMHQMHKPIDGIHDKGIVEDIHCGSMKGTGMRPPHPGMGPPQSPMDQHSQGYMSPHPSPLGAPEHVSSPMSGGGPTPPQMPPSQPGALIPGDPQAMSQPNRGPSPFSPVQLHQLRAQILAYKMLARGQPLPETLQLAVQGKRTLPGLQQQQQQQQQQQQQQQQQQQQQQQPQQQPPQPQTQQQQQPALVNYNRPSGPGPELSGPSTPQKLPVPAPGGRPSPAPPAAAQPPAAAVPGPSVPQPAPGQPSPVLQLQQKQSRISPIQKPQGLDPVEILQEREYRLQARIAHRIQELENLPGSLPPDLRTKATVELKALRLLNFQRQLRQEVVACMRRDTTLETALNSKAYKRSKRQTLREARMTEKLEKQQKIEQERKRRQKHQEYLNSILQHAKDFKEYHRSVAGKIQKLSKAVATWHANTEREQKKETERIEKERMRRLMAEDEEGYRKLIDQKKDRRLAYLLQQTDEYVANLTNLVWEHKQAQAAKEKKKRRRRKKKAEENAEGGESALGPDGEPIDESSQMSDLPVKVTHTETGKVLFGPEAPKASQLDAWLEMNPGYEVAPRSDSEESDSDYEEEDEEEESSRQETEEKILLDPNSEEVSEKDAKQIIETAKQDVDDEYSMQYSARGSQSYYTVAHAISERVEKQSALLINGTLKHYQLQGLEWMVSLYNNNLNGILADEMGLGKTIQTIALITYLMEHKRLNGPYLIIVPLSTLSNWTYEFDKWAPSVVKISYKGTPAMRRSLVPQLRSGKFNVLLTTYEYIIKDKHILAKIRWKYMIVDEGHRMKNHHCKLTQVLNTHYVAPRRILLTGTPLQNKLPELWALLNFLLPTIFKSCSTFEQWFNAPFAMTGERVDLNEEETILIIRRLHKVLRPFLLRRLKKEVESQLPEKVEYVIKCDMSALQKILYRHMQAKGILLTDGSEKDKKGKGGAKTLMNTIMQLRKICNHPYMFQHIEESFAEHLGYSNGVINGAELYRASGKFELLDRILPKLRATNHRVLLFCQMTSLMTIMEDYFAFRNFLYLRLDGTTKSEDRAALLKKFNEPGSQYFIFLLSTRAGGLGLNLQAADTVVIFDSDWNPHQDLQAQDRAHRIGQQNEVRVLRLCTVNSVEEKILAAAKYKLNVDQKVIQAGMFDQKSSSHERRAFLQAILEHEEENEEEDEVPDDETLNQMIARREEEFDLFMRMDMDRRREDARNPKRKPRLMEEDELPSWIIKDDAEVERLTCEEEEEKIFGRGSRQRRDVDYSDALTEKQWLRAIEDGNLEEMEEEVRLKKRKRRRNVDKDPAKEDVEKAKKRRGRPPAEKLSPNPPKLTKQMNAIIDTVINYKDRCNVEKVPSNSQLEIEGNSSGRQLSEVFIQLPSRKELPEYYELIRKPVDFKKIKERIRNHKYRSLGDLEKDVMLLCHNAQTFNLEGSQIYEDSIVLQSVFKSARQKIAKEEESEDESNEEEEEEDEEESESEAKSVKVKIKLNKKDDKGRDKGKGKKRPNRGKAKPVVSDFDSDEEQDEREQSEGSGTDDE
Assay Info: ATPase catalytic activity assay of BRM (ADP-Glo)
Type: biochemical
Condition Parameters: read-out: BRM IC50 (μM)*
# maps each entry to its IC50
Measure: IC50

>>> experimental_result("C[C@@H]1CN(c2cccc(-c3csc(NC(=O)CNC(=O)c4ccc5c(c4)C(C)(CO)COC5)n3)c2)C[C@H](C)O1 (stereo in doubt) [Compound 372]")
"< 0.1 µM"
>>> experimental_result("C[C@@H]1CN(c2cccc(-c3csc(NC(=O)CNC(=O)c4cccc5c4OCC[C@@]5(C)CO)n3)c2)C[C@H](C)O1 [Compound 138]")
"0.1 to 1 µM"
>>> experimental_result("C[C@@H]1CN(c2cc(-c3csc(NC(=O)CNC(=O)c4ccc5c(c4)[C@](C)(C#N)COC5)n3)ccn2)C[C@H](C)O1 [Compound 347]")
"< 0.1 µM"
>>> experimental_result("Cc1cc(-c2cccc(-c3csc(NC(=O)CNC(=O)c4cccc(C(C)(C)CN)c4)n3)c2)ncn1 [Compound 98]")
"0.1 to 1 µM"
>>> experimental_result("CC1(CO)CCc2ccc(C(=O)NCC(=O)Nc3nc(-c4cccc(-c5ccncc5)c4)cs3)cc21 (centres unmarked) [Compound 102]")
"< 0.1 µM"
>>> experimental_result("Cc1cc(C)c(C(C)(C)CN)cc1C(=O)NCC(=O)Nc1nc(-c2cccc(-c3ccncc3)c2)cs1 [Compound 89]")
"1 to 5 µM"
>>> experimental_result("C[C@@H]1CN(c2cccc(-c3csc(NC(=O)CNC(=O)c4ccc5c(c4)[C@](F)(C(F)F)CCO5)n3)c2)C[C@H](C)O1 [Compound 274]")
"< 0.1 µM"
>>> experimental_result("C[C@@]1(C#N)COCc2ccc(C(=O)NCC(=O)Nc3nc(-c4cc(F)cc(N5CCC5)c4)cs3)cc21 [Compound 364]")
"< 0.1 µM"
>>> experimental_result("Cc1cc(-c2cccc(-c3csc(NC(=O)CNC(=O)c4cccc(C(C)(C)CN)c4)n3)c2)cc(C)n1 [Compound 66]")
"< 0.1 µM"
>>> experimental_result("C[C@@H]1CN(c2cccc(-c3csc(NC(=O)CNC(=O)c4ccc5c(c4)C(O)(C(F)F)COC5)n3)c2)C[C@H](C)O1 (some centres unmarked) [Compound 326]")
"< 0.1 µM"
>>> experimental_result("Cc1ccc(C(=O)NCC(=O)Nc2nc(-c3cccc(N4C[C@@H](C)O[C@@H](C)C4)c3)cs2)cc1S(=O)(=O)C(C)C [Compound 125]")
"< 0.1 µM"
>>> experimental_result("Cc1cc(-c2cccc(-c3csc(NC(=O)CNC(=O)c4ccc(C)c(C(C)(C)CN)c4)n3)c2)cc(C)n1 [Compound 92]")
"< 0.1 µM"
>>> experimental_result("CC(C)(CN)c1cccc(C(=O)NCC(=O)Nc2nc(-c3cccc(CO[C@H]4CC[C@H](O)CC4)c3)cs2)c1 [Compound 62]")
"1 to 5 µM"
>>> experimental_result("COc1cccc(-c2csc(NC(=O)CNC(=O)c3ccc4c(c3)[C@](C)(C#N)COC4)n2)c1 [Compound 401]")
"< 0.1 µM"
